Each recorded value in this set is attributed to the supplement of paper PMC10567573.

B1: ANKRD44 (parent)
chain: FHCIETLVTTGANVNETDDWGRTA

variants of: B1; assay: protein stability index of a GFP-peptide fusion (GPS, HEK-293T) (PSI 1-6); higher = more stable; conditions: c terminus: a fixed tail appended;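 also: lentivirally expressed fusions sorted by FACS into six bins by GFP to DsRed ratio, PSI derived from sequencing read proportions per bin multiplied by bin number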
measured_attribute: protein stability index

- T10R: 2.34
- F1E: 4.77
- R22Q: 2.7
- T6V: 3.28
- E5T: 1.82
- C3Q: 3.03
- R22M: 2.27
- W20M: 2.47
- F1V: 3.68
- D19P: 2.26
- A24F: 2.24
- F1T: 4.25
- C3L: 2.05
- W20D: 3.2
- L7D: 4.03
- A24S: 2.06
- W20R: 2.57
- V14T: 2.93
- C3H: 2.79
- W20Q: 2.66
- T6N: 2.52
- D18Q: 1.69
- A24Q: 2.06
- N13K: 2.36
- F1R: 3.48
- W20T: 3.27
- G11F: 1.47
- D19S: 1.72
- T9S: 2.23
- D18L: 2.81
- V8F: 2.26
- H2K: 3.34
- V14G: 1.86
- N13R: 2.1
- A24T: 2.21
- D19E: 2.49
- G11Y: 2.39
- D18K: 1.65
